measured target: KRAS WT (Homo sapiens (Human), UniProt P01116+P62937)
Sequence (P01116-2 other isoform, or with tags, fused parts or gaps): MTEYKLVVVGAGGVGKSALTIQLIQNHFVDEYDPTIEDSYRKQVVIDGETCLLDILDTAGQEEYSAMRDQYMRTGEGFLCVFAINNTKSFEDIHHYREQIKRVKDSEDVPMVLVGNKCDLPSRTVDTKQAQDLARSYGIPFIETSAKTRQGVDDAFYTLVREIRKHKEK
Sequence (P62937 whole entry): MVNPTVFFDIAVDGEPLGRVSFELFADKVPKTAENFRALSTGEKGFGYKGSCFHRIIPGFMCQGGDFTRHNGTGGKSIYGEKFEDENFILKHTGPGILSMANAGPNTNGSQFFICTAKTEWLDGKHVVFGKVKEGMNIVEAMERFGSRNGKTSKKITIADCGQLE
assay procedure: Ras-Raf (BRAF RBD) disruption / FRET / MOA assay, KRAS WT
Assay type: biochemical
condition summary: read-out: IC50* KRAS WT FRET data
pIC50: −log10 of the molar value.
endpoint label: pIC50

[[record]]
line_notation = "CCn1c(-c2cccnc2[C@H](C)OC)c2c3cc(ccc31)-c1cc(O)cc(c1)C[C@H](NC(=O)[C@H](C(C)C)N(C)C(=O)[C@H]1CCN(C(=O)C#CC3(N(C)C)COC3)C1)C(=O)N1CCC[C@H](N1)C(=O)OCC(C)(C)C2"
result = "6.00 to 7.00"


Challenge: Which pIC50 value belongs to CCn1c(-c2cccnc2COC)c2c3cc(ccc31)-c1cc(O)cc(c1)C[C@H](NC(=O)[C@H](C(C)C)N(C)C(=O)[C@H]1CCN(C(=O)C#CC3(N(C)C)CC3)C1)C(=O)N1CCC[C@H](N1)C(=O)OCC(C)(C)C2 ?
Response given: 5.00 to 6.00

* * *

measured target: KRAS WT (Homo sapiens (Human), UniProt P01116+P62937)
assay procedure: Ras-Raf (BRAF RBD) disruption / FRET / MOA assay, KRAS WT
Type: biochemical
condition summary: read-out: IC50* KRAS WT FRET data
compounds and their reported IC50

These solved cases illustrate the format of a correct answer.
[[record]]
compound = "C=CC(=O)N(C)[C@@H]1CCCN(C(=O)N(C)[C@H](C(=O)N[C@H]2Cc3nc(cs3)-c3ccc4c(c3)c(c(-c3cccnc3[C@H](C)OC)n4CC)CC(C)(C)COC(=O)[C@@H]3CCCN(N3)C2=O)C(C)C)C1 (atropisomer, axis not shown)"
result = "10 to 100 nM"

[[record]]
compound = "CCn1c(-c2cccnc2[C@H](C)OC)c2c3cc(ccc31)-c1cccc(c1)C[C@H](NC(=O)[C@H](C(C)C)N(C)C(=O)N1CCC13CN(C(=O)C#CC(C)(C)N(C)C)C3)C(=O)N1CCC[C@H](N1)C(=O)OCC(C)(C)C2"
result = "100 to 1000 nM"

[[record]]
compound = "CCn1c(-c2cccnc2COC)c2c3cc(ccc31)-c1cc(O)cc(c1)C[C@H](NC(=O)[C@H](C(C)C)N(C)C(=O)[C@H]1CCC(C(=O)/C=C\\CN(C)C)C1)C(=O)N1CCC[C@H](N1)C(=O)OCC(C)(C)C2 (some centres unmarked) [Example A161]"
result = "1000 to 10000 nM"

[[record]]
compound = "CCn1c(-c2cccnc2[C@H](C)OC)c2c3cc(ccc31)-c1cccc(c1)C[C@H](NC(=O)[C@H](C(C)C)N(C)C(=O)[C@H]1CCN(C(=O)C#CCN3CCOCC3)C1)C(=O)N1CCC[C@H](N1)C(=O)OCC(C)(C)C2 (atropisomer, axis not shown)"
result = "> 10000 nM"

[[record]]
compound = "C=CC(=O)N1CC[C@H](C(=O)N(C)[C@H](C(=O)N[C@H]2Cc3cc(cc(C(F)F)c3)-c3ccc4c(c3)c(c(-c3cc(N5CCN(C)CC5)cnc3[C@H](C)OC)n4CC(F)(F)F)CC(C)(C)COC(=O)[C@@H]3CCCN(N3)C2=O)C(C)C)C1 (atropisomer, axis not shown)"
result = "100 to 1000 nM"


Challenge: Which IC50 value belongs to C=CC(=O)N1CC[C@H](C(=O)N(C)[C@H](C(=O)N[C@H]2Cc3cccc(c3)-c3ccc4c(c3)c(c(-c3cccnc3[C@H](C)OC)n4CC#CC)CC(C)(C)COC(=O)[C@@H]3CCCN(N3)C2=O)C(C)C)C1 (atropisomer, axis not shown) ?
Response given: 1000 to 10000 nM

Challenge: Which IC50 value belongs to C=CC(=O)N1CCN(C(=O)N(C)[C@H](C(=O)N[C@H]2Cc3nc(cs3)-c3ccc4c(c3)c(c(-c3cccnc3[C@H](C)OC)n4CC(F)(F)F)CC(C)(C)COC(=O)[C@@H]3CCCN(N3)C2=O)C(C)C)CC12CC2 (atropisomer, axis not shown) ?
Response given: 10 to 100 nM

Challenge: Which IC50 value belongs to C=CC(=O)N1CCC2(CCN(C(=O)N(C)[C@H](C(=O)N[C@H]3Cc4nc(cs4)-c4ccc5c(c4)c(c(-c4cccnc4[C@H](C)OC)n5CC)CC(C)(C)COC(=O)[C@@H]4CCCN(N4)C3=O)C(C)C)CC2)C1 (atropisomer, axis not shown) ?
Response given: 100 to 1000 nM
